Quick reference: [Ca^2+]/GPR120 10 μM (ratio vs. LA) of the listed items.
# TEST SYSTEM: human GPR120 (hGPR120) (Homo sapiens)
# Construct: expressed in transfected cells; doxycycline-inducible expression vector
# Sequence (Q5NUL3 1-361): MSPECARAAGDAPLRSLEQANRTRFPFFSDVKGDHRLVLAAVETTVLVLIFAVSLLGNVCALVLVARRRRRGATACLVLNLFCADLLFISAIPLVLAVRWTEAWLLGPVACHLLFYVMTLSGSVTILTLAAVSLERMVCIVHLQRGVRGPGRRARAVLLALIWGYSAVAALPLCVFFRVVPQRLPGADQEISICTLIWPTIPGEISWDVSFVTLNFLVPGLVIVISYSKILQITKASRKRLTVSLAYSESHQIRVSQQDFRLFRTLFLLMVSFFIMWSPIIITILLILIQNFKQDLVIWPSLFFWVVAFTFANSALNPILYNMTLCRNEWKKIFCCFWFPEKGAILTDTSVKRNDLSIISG
# EXPERIMENT DESCRIPTION: Determination of intracellular Ca2+ concentration (FLIPR), cell line TXGPR120
# Format: cell-based
# ASSAY CONTEXT: relative fluorescence intensity vs LA at 10 μM, TXGPR120 cells
# Protocol: (1) In this test, The cell lines TXGPR40, TXGPR120 and GPR120/Flp-in were plated onto a collagen-coated black 96-well plate in 2×10^5 cells/well. […] (4) After one hour, the 96-well plate containing the cells and the 96-well plate in which ligands and controls were prepared were set on FLIPR (Fluorometric Imaging Plate Reader) for determination. […] (6) The maximum fluorescence intensity was obtained from the data showing the change in the fluorescence intensity over time observed in each well. […]
Reply: number alone, nothing else.

// below: answered compounds
COMPOUND	NUMERIC RESULT
O=C(O)CCCc1ccc(OCCN(c2cccnc2)c2ccccn2)cc1 [NCG45]	0.01
CS(=O)(=O)NC(=O)CCc1ccc(NCc2cccc(Oc3ccccc3)c2)cc1 [NCG19]	0.04
O=C(O)CCCc1ccc(OCCN(c2ccccc2)c2ccccc2)cc1 [NCG29]	0.85
O=C(O)CCCc1ccc(OCCN(c2ccccc2)c2cc(Cl)ccn2)cc1 [NCG35]	0.61
CCCN(CCOc1ccc(CCC(=O)O)cc1)c1ccccn1 [NCP03]	0.00

As a next step, examine the compound that follows.
What is its [Ca^2+]/GPR120 10 μM (ratio vs. LA) for human GPR120 (hGPR120) (Homo sapiens)? Entry: O=C(O)CCc1ccc(OCCCN(c2ccccc2)c2ccccn2)cc1 [NCG28]
0.02
